assay.info: Cell Viability - Jurkat (AID 426);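 note: potency is the fitted concentration of half-maximal effect; cells exposed to compound for 40 hours at 37 °C before ATP read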
assay.conditions: qHTS
Inconclusive results are not listed. Calls of active or inactive are those of the source.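 Rule for the calls: active = dose-dependent loss of cell ATP signal giving a full or clear fitted curve, ranked by lower potency value; inconclusive = weak partial curve or response only at the top dose; inactive = no loss of viability signal.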
Outcomes: active, inactive

INSERT INTO results (compound, cat) VALUES
  ('O=C(/C=C/c1ccc(O)c(O)c1)OC1C[C@](O)(C(=O)O)C[C@@H](O)[C@H]1O (stereo partly specified)', 'inactive'),
  ('CN1[C@H]2CC(OC(=O)[C@H](CO)c3ccccc3)C[C@H]1[C@H]1O[C@H]12 (stereo partly specified)', 'inactive'),
  ('O=[N+]([O-])c1cc([N+](=O)[O-])c2ccc(S(=O)(=O)O)cc2c1O', 'inactive'),
  ('CC(=O)Nc1ccc(C(=O)CCl)cc1', 'active'),
  ('CC/C(=C(\c1ccccc1)c1ccc(OCCN(C)C)cc1)c1ccc(O)cc1', 'active'),
  ('ClC1=C(Cl)C(Cl)(Cl)C(Cl)=C1Cl', 'active'),
  ('O=C(OCC(COC(=O)c1ccccc1)(COC(=O)c1ccccc1)COC(=O)c1ccccc1)c1ccccc1', 'inactive'),
  ('O=C=Nc1ccc(Cc2ccc(N=C=O)cc2)cc1', 'inactive'),
  ('CN(C)c1ccc(C2(c3ccc(N(C)C)cc3)OC(=O)c3cc(N(C)C)ccc32)cc1', 'inactive'),
  ('O=C1OC(O)C(C(Cl)Cl)=C1Cl (stereo unspecified)', 'active'),
  ('C=CC(=O)OCC(CO)(COC(=O)C=C)COC(=O)C=C', 'active');
